system: Bifidobacterium animalis spp. lactis (DSMZ 10140); test: Broth microdilution MIC, B. animalis spp. lactis; format: cell-based; conditions: DSMZ10140; Bifidobacterium animalis spp. lactis; growth inhibited by ≥80%; read-out: MIC
Entries whose MIC is below 30 µg/mL take Fulfilled; entries at or above 30 µg/mL take Not fulfilled.

## Input Problem: For the molecule COc1ccc2cc3[n+](cc2c1OC)CCc1cc2c(cc1-3)OCO2 [BR, berberine chloride] , is MIC under 30 µg/mL?
## Output Not fulfilled

## Input Problem: For the molecule Cc1ncc([N+](=O)[O-])n1CCO , is MIC under 30 µg/mL?
## Output Not fulfilled

## Input Problem: For the molecule O=C(N[C@H](CO)[C@H](O)c1ccc([N+](=O)[O-])cc1)C(Cl)Cl , is MIC under 30 µg/mL?
## Output Fulfilled

## Input Problem: For the molecule CN(C)[C@@H]1C(O)=C(C(N)=O)C(=O)[C@@]2(O)C(O)=C3C(=O)c4c(O)cccc4[C@@](C)(O)[C@H]3C[C@@H]12 , is MIC under 30 µg/mL?
## Output Not fulfilled

## Input Problem: For the molecule CO/N=C(\C(=O)N[C@@H]1C(=O)N2C(C(=O)O)=C(CSc3nc(=O)c(=O)[nH]n3C)CS[C@H]12)c1csc(N)n1 [CF, ceftriaxone sodium] , is MIC under 30 µg/mL?
## Output Fulfilled

## Input Problem: For the molecule O=C(O)c1cn(C2CC2)c2cc(N3CCNCC3)c(F)cc2c1=O , is MIC under 30 µg/mL?
## Output Not fulfilled

## Input Problem: For the molecule O=S(=O)(O)c1cc(I)c(O)c2ncccc12 , is MIC under 30 µg/mL?
## Output Not fulfilled

## Input Problem: For the molecule Oc1c(Cl)cc(Cl)c2cccnc12 , is MIC under 30 µg/mL?
## Output Not fulfilled

## Input Problem: For the molecule O=[N+]([O-])c1ccc(O)c2ncccc12 , is MIC under 30 µg/mL?
## Output Not fulfilled

## Input Problem: For the molecule O=C(O)c1ccccc1O , is MIC under 30 µg/mL?
## Output Not fulfilled

Taken from paper PMC7558399.
